Data provenance: PubChem BioAssay (NCI)

# key: entry, value: GI50
Tested on: OVCAR-3 ovarian
Experiment: NCI tumour cell line growth inhibition, 48 h

compound	GI50
CCOc1ccc(NC(=O)Nc2cc(C(C)C)ccc2C)cc1	5.33 µM
C=C1CC2CC[C@@]34C[C@@H]5O[C@@H]6C(O[C@H]7CC[C@H](CC(=O)OC8[C@@H](C)C9OC%10C[C@]%11(C[C@@H]%12O[C@@]%13(C[C@@H](C)[C@@H]%12O%11)C[C@H](C)[C@@H]%11OC%12CC(C(O)CO)OC%12C[C@@H]%11O%13)OC%10CC9O[C@H]8C[C@H]8O[C@@H](CC[C@@H]1O2)C[C@@H](C)C8=C)O[C@@H]7[C@@H]6O3)C5O4 (stereo not given in full)	< 0.000148 µM
COc1ccccc1-c1cc2c3c(nc4ccccc42)C(=O)c2cccnc2-c3n1	1.56 µM
CN(C(=O)C1CCCCC1)c1ccccc1I(=O)=O	30.5 µM
CC1(C)CCC(S(=O)(=O)c2ccc3c(c2)/C(=N\O)c2cc(S(=O)(=O)N4CCC(O)(c5cccc(C(F)(F)F)c5)CC4)ccc2-3)CC1	0.0211 µM

* * *

System: OVCAR-4 ovarian
Experiment: NCI tumour cell line growth inhibition, 48 h
Where a SMILES comes first, the peptide text is derived from it. [ ]: non-standard residue; d: D form. The star is where a group is joined. ξ: configuration not given here. X16 = COC1=CC(=O)N(C(=O)C(O*)C(C)C)C1Cc1ccccc1; ξNMe2Val = CC(C)C(C(=O)*)N(C)C; NMeV = CN[CH](C(=O)O)C(C)C
property measured: GI50

compound	assay value
O=C(c1ccccc1)c1ccc(-c2ccc(O)cc2)cc1	5.87 µM
C=C1C(=O)O[C@H]2[C@H]1CC/C(COC(=O)OCCCCCOC(=O)OC/C1=C/CC[C@@]3(C)O[C@H]3[C@H]3OC(=O)C(=C)[C@@H]3CC1)=C\CC[C@@]1(C)O[C@@H]21	0.683 µM
CO/N=C(\c1ccccc1)c1cnn(-c2ccccc2)c1N	> 25 µM
O=C(CC12CC3CC(CC(C3)C1)C2)NCCOCCOCCNC(=O)c1cc2c(o1)C(=O)c1ccccc1C2=O	0.839 µM
O=C1c2ccn(CCCCN3CCOCC3)c2C(=O)c2c1c(O)c1ccccc1c2O	30.3 µM
O=C1Nc2ccc(F)c3c(OCCO)cc(-c4ccc[nH]4)c1c23	1.44 µM
COC1/C=C/O[C@@]2(C)Oc3c(C)c(O)c4c(O)c(cc(O)c4c3C2=O)NC(=O)/C(C)=C\C=C\[C@H](C)C(O)[C@@H](C)[C@@H](O)[C@@H](C)[C@H](OC(C)=O)[C@@H]1C (stereo partly drawn)	16 µM
C[C@]12CC[C@H](O)CC1=CC[C@@H]1[C@@H]2CC[C@]2(C)C(=O)/C(=C/c3cccc(OCCCn4ccnc4)c3)C[C@@H]12	19.6 µM
O=C1OCC(c2ccc(O)c(O)c2)=C1c1cc(O)c(O)c(O)c1	26.2 µM
COC1=CC(=O)N(C(=O)C(OC(=O)C2CCCN2C(=O)C2CCCN2C(=O)C(C(C)C)N(C)C(=O)C(NC(=O)C(C(C)C)N(C)C)C(C)C)C(C)C)C1Cc1ccccc1 (stereo not drawn) (ξNMe2Val-V[NMeV]PP-X16; configuration not given here)	0.663 µM
O=S(=O)(Nc1ccc(-c2nc(-c3cccc(OCCN4CCOCC4)c3)c(-c3ccnc(Br)c3)[nH]2)cc1)c1ccccc1	4.16 µM
COc1ccccc1-c1cc2c3c(nc4ccccc42)C(=O)c2cccnc2-c3n1	13.5 µM
COc1ccc(/C=C2/CN(C(=O)c3ccccc3F)C/C(=C\c3ccc(OC)cc3)C2=O)cc1	6.02 µM
